- TARGET ENTITY: SpHof1
- PROTOCOL NOTES: SPOT peptide array binding signal intensity (averaged, normalized) (arbitrary units (background-subtracted, floor 0; scale differs between SH3 domains)); higher = stronger binding of the SH3 domain to the peptide
Exercise: state measured SPOT peptide array binding signal intensity for each of the binders provided.
Numbers only.

Example binders with recorded SPOT peptide array binding signal intensity:
EVTPKVPERPSRRKT :: 25.4
KRNRLKILLPFLEQS :: 142
AAHKTKPSIPPKKVE :: 0.25
NILKRRPLKLEAPSK :: 48.8
NAGIRPKFILALNDE :: 28.8

Give one value of SPOT peptide array binding signal intensity per listed binder.
1. NRLRKRLNLPSEISI
2. YLTRPLPSTPNEDSR
3. EEEEEHPPLPARRKS
4. YSRKKLPVVLSKMTL

**Result**
[60, 2260, 0.5, 76.8]
